Biological target: Feline_OSMR_hlgG1_Fc (feline)
Sequence (chain, as listed by the source limits assumed, form in doubt): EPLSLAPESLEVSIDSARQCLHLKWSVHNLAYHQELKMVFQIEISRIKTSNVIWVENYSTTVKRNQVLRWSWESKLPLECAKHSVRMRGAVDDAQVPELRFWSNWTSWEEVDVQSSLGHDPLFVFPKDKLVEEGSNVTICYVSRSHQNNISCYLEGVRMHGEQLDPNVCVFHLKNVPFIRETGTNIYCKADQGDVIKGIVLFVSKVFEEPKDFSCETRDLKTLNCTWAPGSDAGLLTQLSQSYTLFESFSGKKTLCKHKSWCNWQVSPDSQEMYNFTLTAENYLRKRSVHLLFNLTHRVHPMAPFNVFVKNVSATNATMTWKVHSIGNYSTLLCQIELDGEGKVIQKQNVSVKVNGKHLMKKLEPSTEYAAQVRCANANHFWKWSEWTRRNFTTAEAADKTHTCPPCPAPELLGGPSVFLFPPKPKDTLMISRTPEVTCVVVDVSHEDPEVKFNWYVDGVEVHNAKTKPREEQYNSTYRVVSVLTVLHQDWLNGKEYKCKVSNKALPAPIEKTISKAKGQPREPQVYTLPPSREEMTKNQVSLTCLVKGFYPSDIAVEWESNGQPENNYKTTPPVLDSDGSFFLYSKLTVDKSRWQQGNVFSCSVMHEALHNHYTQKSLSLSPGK
Test: SPR Biacore
property label: kon (M⁻¹ s⁻¹)
Kindly provide the numeric value in M⁻¹ s⁻¹ only, without the unit symbol.

binder="Mu_02D09_VH (SEQ ID NO: 31)_D31A (antibody, V domains shown) VH: EVQLVESGGGLVKPGGSLTLSCAASGFTFSAYGMHWLRQAPEKGLEWVAYISSGSRAVFFADTVKGRFTISRDNAKNTLFLQMTSLRSDDTAMYYCARDRYDGRGFAYWGQGTLVTVSA VL: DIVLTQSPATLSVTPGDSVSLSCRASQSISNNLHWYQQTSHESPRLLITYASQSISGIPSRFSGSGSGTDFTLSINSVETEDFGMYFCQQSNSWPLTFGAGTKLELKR" value_units="M⁻¹ s⁻¹" numeric_readout=1.14e+06

Request: What does the record list as kon for mouse: canine 19F07 chimera (antibody, V domains shown) VH: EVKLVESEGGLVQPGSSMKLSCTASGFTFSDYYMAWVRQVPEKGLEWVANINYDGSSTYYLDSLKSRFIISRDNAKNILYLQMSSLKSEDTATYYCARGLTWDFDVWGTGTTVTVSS VL: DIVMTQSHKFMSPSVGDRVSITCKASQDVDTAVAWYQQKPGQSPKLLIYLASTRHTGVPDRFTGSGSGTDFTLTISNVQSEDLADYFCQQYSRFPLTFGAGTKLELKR ?
Response: 242000
